# run_description: Half life in Sprague-Dawley rat at 1 mg/kg, iv and 2 mg/kg, po
# Type: ADME, organism-based
# test_settings: in vivo
Catalogue of half-life values
The answer is to be given in h; state only the numeric part.

// solved cases for half-life follow
COc1cc(NC(=O)c2cccc(-n3ncc4cc(Nc5ccccc5F)ccc43)c2)cc(OC)c1OC = 1.5
O=C(NCCN1CCOCC1)c1ccnc(-n2ncc3cc(Nc4ccccc4Cl)ccc32)c1 = 0.5
Cc1cccc(NC(=O)c2cccc(-n3ncc4cc(Nc5ccccc5F)ccc43)c2)c1 = 0.3
CN1CCN(CCNC(=O)c2cccc(-n3ncc4cc(Nc5c(Cl)cccc5Cl)ccc43)c2)CC1 = 2
Cc1cccc(Nc2ccc3c(cnn3-c3cccc(C(=O)NCCN4CCN(C5CCC5)CC4)c3)c2)c1Cl = 3.3

Let us move to another entry and its half-life.
Request the reported half-life associated with O=C(NCCCN1CCOCC1)c1cccc(-n2ncc3cc(Nc4ccccc4Cl)ccc32)c1
0.5

----------
# run_description: Half life in rat liver microsomes
# Assay type: ADME, Microsome
Catalogue of half-life values
The answer is to be given in min; state only the numeric part.

COc1cc(NC(=O)c2cccc(-n3ncc4cc(Nc5ccccc5)ccc43)c2)cc(OC)c1OC = 5.8

Request the reported half-life associated with O=C(NCCCN1CCOCC1)c1cccc(-n2ncc3cc(Nc4ccccc4Cl)ccc32)c1
5.6

Request the reported half-life associated with Cc1cccc(NC(=O)c2cccc(-n3ncc4cc(Nc5ccccc5F)ccc43)c2)c1
6

----------
# run_description: Plasma concentration in C57BL6 mouse at 10 mg/kg, ip after 2 hrs
# Format: ADME, organism-based
# Parameters: dose 10 mg/kg, route intraperitoneal
measured_endpoint: concentration at 2 h

CN1CCN(CCNC(=O)c2cccc(-n3ncc4cc(Nc5c(Cl)cccc5Cl)ccc43)c2)CC1 = 2120 nM
O=C(NCCN1CCOCC1)c1cccc(-n2ncc3cc(Nc4ccccc4Cl)ccc32)c1 = 560 nM

Let us move to another entry and its concentration at 2 h.
Request the reported concentration at 2 h associated with O=C(NCCCN1CCOCC1)c1ccc(-n2ncc3cc(Nc4ccccc4Cl)ccc32)cc1
240 nM

----------
Catalogue of log10 AUC values
# run_description: AUC in Sprague-Dawley rat at 1 mg/kg, iv and 2 mg/kg, po
# Type: ADME, organism-based
# test_settings: plasma
# values: log10(AUC), units µM·h

Request the reported log10 AUC associated with Cc1cccc(Nc2ccc3c(cnn3-c3cccc(C(=O)NCCN4CCN(C5CCC5)CC4)c3)c2)c1Cl
-0.14

Request the reported log10 AUC associated with COc1cc(NC(=O)c2cccc(-n3ncc4cc(Nc5ccccc5F)ccc43)c2)cc(OC)c1OC
-1.30

Request the reported log10 AUC associated with O=C(NCCN1CCOCC1)c1ccnc(-n2ncc3cc(Nc4ccccc4Cl)ccc32)c1
-2.00

Request the reported log10 AUC associated with Cc1cccc(NC(=O)c2cccc(-n3ncc4cc(Nc5ccccc5F)ccc43)c2)c1
-0.30

Request the reported log10 AUC associated with O=C(NCCCN1CCOCC1)c1cccc(-n2ncc3cc(Nc4ccccc4Cl)ccc32)c1
-2.00

Request the reported log10 AUC associated with CN1CCN(CCNC(=O)c2cccc(-n3ncc4cc(Nc5c(Cl)cccc5Cl)ccc43)c2)CC1
-0.42

----------
Catalogue of clearance values
# run_description: Plasma clearance in Sprague-Dawley rat at 1 mg/kg, iv and 2 mg/kg, po
# Assay type: ADME, organism-based
The answer is to be given in mL/min/kg; state only the numeric part.

// solved cases for clearance follow
COc1cc(NC(=O)c2cccc(-n3ncc4cc(Nc5ccccc5F)ccc43)c2)cc(OC)c1OC = 57
CN1CCN(CCNC(=O)c2cccc(-n3ncc4cc(Nc5c(Cl)cccc5Cl)ccc43)c2)CC1 = 34
O=C(NCCCN1CCOCC1)c1cccc(-n2ncc3cc(Nc4ccccc4Cl)ccc32)c1 = 123

Request the reported clearance associated with Cc1cccc(Nc2ccc3c(cnn3-c3cccc(C(=O)NCCN4CCN(C5CCC5)CC4)c3)c2)c1Cl
25

Request the reported clearance associated with O=C(NCCN1CCOCC1)c1ccnc(-n2ncc3cc(Nc4ccccc4Cl)ccc32)c1
54

Request the reported clearance associated with Cc1cccc(NC(=O)c2cccc(-n3ncc4cc(Nc5ccccc5F)ccc43)c2)c1
79

----------
# Species on record: Homo sapiens
# run_description: Selectivity ratio of IC50 for JNK1 (unknown origin) to IC50 for JNK3 (unknown origin)
Catalogue of Ratio IC50 values
The reply should be a number, written without any unit.

// solved cases for Ratio IC50 follow
O=C(NCCCN1CCOCC1)c1cccc(-n2ncc3cc(Nc4ccccc4Cl)ccc32)c1 = 5
CCOc1ccc(NC(=O)c2cccc(-n3ncc4cc(Nc5ccccc5F)ccc43)c2)cc1OC = 5
Cc1cccc(NC(=O)c2cccc(-n3ncc4cc(Nc5ccccc5F)ccc43)c2)c1 = 5

Request the reported Ratio IC50 associated with CN1CCN(CCNC(=O)c2cncc(-n3ncc4cc(Nc5c(Cl)cccc5Cl)ccc43)c2)CC1
10

Request the reported Ratio IC50 associated with O=C(NCCN1CCOCC1)c1cccc(-n2ncc3cc(Nc4ccccc4Cl)ccc32)n1
10

----------
Catalogue of bioavailability values
# run_description: Oral bioavailability in Sprague-Dawley rat at 2 mg/kg
# Assay type: ADME, organism-based
# test_settings: in vivo
The answer is to be given in %; state only the numeric part.

Request the reported bioavailability associated with O=C(NCCCN1CCOCC1)c1cccc(-n2ncc3cc(Nc4ccccc4Cl)ccc32)c1
6

----------
Catalogue of IC50 values
# target_desc: Mitogen-activated protein kinase 10 (Homo sapiens, UniProt P53779)
# Sequence (P53779 whole entry): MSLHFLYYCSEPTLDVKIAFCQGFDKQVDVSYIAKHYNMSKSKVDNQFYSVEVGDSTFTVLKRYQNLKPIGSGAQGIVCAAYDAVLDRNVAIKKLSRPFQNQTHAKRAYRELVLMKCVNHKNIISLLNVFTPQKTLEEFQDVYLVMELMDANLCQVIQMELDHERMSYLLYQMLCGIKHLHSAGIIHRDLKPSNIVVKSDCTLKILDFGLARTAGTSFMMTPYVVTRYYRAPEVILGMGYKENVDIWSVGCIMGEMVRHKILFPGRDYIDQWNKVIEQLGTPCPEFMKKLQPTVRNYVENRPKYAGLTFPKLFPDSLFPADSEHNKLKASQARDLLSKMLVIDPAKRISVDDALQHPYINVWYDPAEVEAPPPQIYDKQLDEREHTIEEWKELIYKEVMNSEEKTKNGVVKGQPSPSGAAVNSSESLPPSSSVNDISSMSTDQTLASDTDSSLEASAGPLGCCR
# run_description: Inhibition of JNK3 (unknown origin)-mediated ATF2 Thr71 phosphorylation by HTRF assay
The answer is to be given in µM; state only the numeric part.

O=C(NCCN1CCOCC1)c1cccc(-n2ncc3cc(Nc4ccccc4Cl)ncc32)c1 = 0.08
O=C(NCCCN1CCOCC1)c1ccc(-n2ncc3cc(Nc4ccccc4Cl)ccc32)cc1 = 0.033

Request the reported IC50 associated with Cc1cc(NC(=O)c2cccc(-n3ncc4cc(Nc5ccccc5Cl)ccc43)c2)ccc1N1CCOCC1
0.032

Request the reported IC50 associated with Cc1cccc(CC(=O)Nc2cnn(-c3cccc(C(=O)NC4CCOC(C)(C)C4)c3)c2)c1 (stereo not drawn)
1.1

Request the reported IC50 associated with CCOc1ccc(NC(=O)c2cccc(-n3ncc4cc(Nc5ccccc5F)ccc43)c2)cc1OC
0.046

Request the reported IC50 associated with O=C(NCCN1CCOCC1)c1cc(-n2ncc3cc(Nc4c(Cl)cccc4Cl)ccc32)ccn1
0.64

Request the reported IC50 associated with O=C(NCCN1CCOCC1)c1cccc(-n2ncc3cc(Nc4c(Cl)cccc4Cl)ccc32)c1
0.077

Request the reported IC50 associated with COc1ccccc1Nc1ccc2c(cnn2-c2cccc(C(=O)NCCCN3CCOCC3)c2)c1
0.043

Request the reported IC50 associated with O=C(NCCCN1CCOCC1)c1cccc(-n2ncc3cc(Nc4ccccc4Cl)ccc32)c1
0.015

Request the reported IC50 associated with CN1CCN(CCNC(=O)c2cccc(-n3ncc4cc(Nc5c(Cl)cccc5Cl)ccc43)c2)CC1
0.05

----------
# run_description: Drug uptake in C57BL6 mouse brain at 10 mg/kg, ip after 2 hrs
# Assay type: ADME, organism-based
# Parameters: dose 10 mg/kg, route intraperitoneal
# test_settings: read-out: Drug uptake
Catalogue of concentration at 2 h values
The answer is to be given in nM; state only the numeric part.

// solved cases for concentration at 2 h follow
COc1cc(NC(=O)c2cccc(-n3ncc4cc(Nc5ccccc5F)ccc43)c2)cc(OC)c1OC = 50
Cc1cccc(NC(=O)c2cccc(-n3ncc4cc(Nc5ccccc5F)ccc43)c2)c1 = 30

Let us move to another entry and its concentration at 2 h.
Request the reported concentration at 2 h associated with O=C(NCCN1CCOCC1)c1cccc(-n2ncc3cc(Nc4ccccc4Cl)ccc32)c1
550

----------
# target_desc: Mitogen-activated protein kinase 8 (Homo sapiens, UniProt P45983)
# Sequence (P45983 whole entry): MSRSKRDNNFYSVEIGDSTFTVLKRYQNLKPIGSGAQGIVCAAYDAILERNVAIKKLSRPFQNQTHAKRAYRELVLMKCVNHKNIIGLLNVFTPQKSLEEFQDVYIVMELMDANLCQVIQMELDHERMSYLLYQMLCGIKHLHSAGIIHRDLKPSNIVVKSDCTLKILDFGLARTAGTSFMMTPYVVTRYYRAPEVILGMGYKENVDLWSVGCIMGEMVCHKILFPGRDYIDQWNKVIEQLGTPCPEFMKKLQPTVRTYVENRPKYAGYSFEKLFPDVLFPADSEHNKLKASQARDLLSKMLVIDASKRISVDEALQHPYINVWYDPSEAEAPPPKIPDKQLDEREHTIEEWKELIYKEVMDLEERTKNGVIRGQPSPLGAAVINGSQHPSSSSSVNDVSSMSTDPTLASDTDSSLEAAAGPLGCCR
# run_description: Inhibition of JNK1 (unknown origin)-mediated ATF2 Thr71 phosphorylation by HTRF assay
Categorized via IC50: bottom: < 400 nM; middle: ≥ 400 nM and < 1000 nM; top: ≥ 1000 nM

Please review the following examples before continuing.
O=C(NCCN1CCOCC1)c1cccc(-n2ncc3cc(Nc4ccccc4Cl)ncc32)c1 = top
O=C(NCCN1CCOCC1)c1ccnc(-n2ncc3cc(Nc4ccccc4Cl)ccc32)c1 = top
CN1CCN(CCNC(=O)c2cccc(-n3ncc4cc(Nc5c(Cl)cccc5Cl)ccc43)c2)CC1 = top
Cc1cccc(CC(=O)Nc2cnn(-c3cccc(C(=O)NC4CCOC(C)(C)C4)c3)c2)c1 (stereo unspecified) = top
O=C(NCCCN1CCOCC1)c1ccc(-n2ncc3cc(Nc4ccccc4Cl)ccc32)cc1 = middle

Tag the class for COc1cc(NC(=O)c2cccc(-n3ncc4cc(Nc5ccccc5)ccc43)c2)cc(OC)c1OC
bottom

Tag the class for O=C(NCCN1CCOCC1)c1cccc(-n2ncc3cc(Nc4ccccc4)cnc32)c1
top

Tag the class for Cc1cccc(NC(=O)c2cccc(-n3ncc4cc(Nc5ccccc5F)ccc43)c2)c1
middle

Tag the class for NC(=O)c1cccc(-n2ncc3cc(Nc4ccccc4F)ccc32)c1
middle

All values here come from ChEMBL document CHEMBL2375283.
